molecular target: T1, human MET extracellular domain (ECD) (human, UniProt P08581 25-932); experiment: ELISA, MET ECD in solid phase, mAb 0-50 nM
T1 construct: range 1-932; recombinant ECD; also called hMET; human MET ECD
T1 sequence (P08581 25-932 limits assumed, form in doubt): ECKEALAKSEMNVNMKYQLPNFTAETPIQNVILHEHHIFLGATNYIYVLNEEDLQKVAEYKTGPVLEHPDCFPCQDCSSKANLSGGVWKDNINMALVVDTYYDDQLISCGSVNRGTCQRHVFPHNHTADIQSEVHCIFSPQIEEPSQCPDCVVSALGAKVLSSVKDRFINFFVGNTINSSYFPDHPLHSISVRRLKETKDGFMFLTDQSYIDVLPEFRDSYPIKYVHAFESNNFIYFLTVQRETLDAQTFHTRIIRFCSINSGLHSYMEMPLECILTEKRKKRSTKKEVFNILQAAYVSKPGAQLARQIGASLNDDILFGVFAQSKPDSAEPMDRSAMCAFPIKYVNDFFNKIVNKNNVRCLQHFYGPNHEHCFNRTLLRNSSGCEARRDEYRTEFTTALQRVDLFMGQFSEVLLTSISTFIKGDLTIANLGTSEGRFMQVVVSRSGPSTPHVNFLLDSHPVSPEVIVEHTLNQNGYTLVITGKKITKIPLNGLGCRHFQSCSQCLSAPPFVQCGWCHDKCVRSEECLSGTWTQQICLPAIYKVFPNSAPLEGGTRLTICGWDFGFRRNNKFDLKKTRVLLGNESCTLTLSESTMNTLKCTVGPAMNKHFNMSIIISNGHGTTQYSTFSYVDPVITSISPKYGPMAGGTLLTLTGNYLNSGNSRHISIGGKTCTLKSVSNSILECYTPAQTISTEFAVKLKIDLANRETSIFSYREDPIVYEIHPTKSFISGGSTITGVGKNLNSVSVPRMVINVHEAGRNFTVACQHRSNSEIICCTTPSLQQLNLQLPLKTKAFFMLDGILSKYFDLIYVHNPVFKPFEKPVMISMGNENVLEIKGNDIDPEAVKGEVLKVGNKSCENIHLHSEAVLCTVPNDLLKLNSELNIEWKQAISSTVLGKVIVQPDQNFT
quantity name: % binding (EMAX) compared to WT MET (%)
Give a bare numeral; the unit % is implied.

// lookup % binding (EMAX) compared to WT MET for chimeric llama-human IgG1 mAb 71G2 (antibody, V domains shown) VH: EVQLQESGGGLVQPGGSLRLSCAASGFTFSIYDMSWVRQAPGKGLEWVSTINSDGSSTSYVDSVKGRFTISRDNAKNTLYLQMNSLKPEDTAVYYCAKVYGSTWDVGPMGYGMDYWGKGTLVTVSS VL: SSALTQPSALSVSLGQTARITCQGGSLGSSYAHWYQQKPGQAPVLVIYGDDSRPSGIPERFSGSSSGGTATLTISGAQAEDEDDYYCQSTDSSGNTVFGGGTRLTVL 100

// provenance: patent US20210024639A1
